# protocol summary: qHTS assay to identify small molecule agonists of the peroxisome proliferator-activated receptor delta (PPARd) signaling pathway - cell viability counter screen (AID 743211); also: nearly all actives have a fitted effect of over 55% in size
# experimental setup: PPARd-bla HEK293H viability, CellTiter-Glo luminescence, 17 h; series mostly up to 62.6 µM
Inconclusive results are not listed. The source made the active and inactive calls. Calls follow the shape of the dose curve; as a rule, active = well fitted cell-killing curve with a large enough effect in the repeat runs; inconclusive = weak or mixed curves; inactive = no such curve, though single readings can be large or run the other way.
Classes used: active, inactive

>>> df
                                    compound  qualitative_label
 0  Cc1cc2c(C(C)C)c(O)c(O)c(C=O)c2c(O)c1-c1c(C)cc2c(C(C)C)c(O)c(O)c(C=O)c2c1O             active
 1  O=C1NCCN1CCN1CCC(c2cn(-c3ccc(F)cc3)c3ccc(Cl)cc23)CC1             active
 2  CN1CCN(C2Cc3ccccc3Sc3ccc(Cl)cc32)CC1 (stereo unspecified)             active
 3  Cc1c(-c2ccc(O)cc2)n(Cc2ccc(OCCN3CCCCCC3)cc2)c2ccc(O)cc12             active
 4                           NC(=O)c1ccccc1N           inactive
 5  CC(=O)Oc1ccc(C2(c3ccc(OC(C)=O)cc3)C(=O)Nc3ccccc32)cc1           inactive
 6                 CC(C)(C)CC(C)(C)c1ccccc1O             active
 7  CCN(CC)CCOc1ccc(C(O)(Cc2ccc(Cl)cc2)c2ccc(C)cc2)cc1 (stereo unspecified)             active
 8                        O=C(O)CCCCCCC(=O)O           inactive
 9                             O=C(O)CC(=O)O           inactive
10                             C[Si](C)(C)Cl           inactive
11    CC(=O)OC(OC(C)=O)c1ccc([N+](=O)[O-])o1             active
12  CCCOc1sc(C(=O)N2CCC(c3cc(CN)ccc3F)CC2)c(C)c1Br             active
13  COc1cc(C(C)C)c2c(c1)S(=O)(=O)N(COc1cc(=O)n3cccc(OCCN4CCCCC4)c3n1)C2=O           inactive
14                   CCCCCCCCCCCC(=O)N(CC)CC           inactive
15                   C(=C/c1ccccc1)/c1ccccc1           inactive
16  O[C@@H](c1cc(C(F)(F)F)nc2c(C(F)(F)F)cccc12)[C@H]1CCCCN1             active
17  C=C[C@](C)(O)CC[C@@H]1[C@@]2(C)CCCC(C)(C)[C@@H]2CC[C@@]1(C)O             active
18                          CCCCCCCCCCCCCCCC           inactive
19  COC(=O)C1=C(C)NC(C)=C(C(=O)OCCCN2CCC(c3ccccc3)(c3ccccc3)CC2)C1c1cccc([N+](=O)[O-])c1 (stereo unspecified)             active
20  CC(C)(c1cc(Br)c(OCCO)c(Br)c1)c1cc(Br)c(OCCO)c(Br)c1             active
21                        CCCCCCCCCCCCCCNCCO           inactive
22                       CCCCCCCCCC(=O)N(C)C           inactive
23                                 CNC(=S)NN             active
24                 COC(=O)NCCC[Si](OC)(OC)OC           inactive
25                    O=C1C=CC(=O)N1c1ccccc1             active
26  COC(=O)CC(C)CCC=C(C)C (stereo unspecified)           inactive
27              CSc1c(Cl)c(Cl)c(Cl)c(Cl)c1Cl             active
28  C[C@]12CC[C@H]3C(=CCc4cc(O)ccc43)[C@@H]1CCC2=O           inactive
29     CCCC(CC)CCCCCCCN (stereo unspecified)           inactive
30  NC(=O)c1nc(-c2cccc(-c3cc(F)ccc3OCC(F)(F)C(F)(F)F)c2)n[nH]1             active
31                        CCCCCCOc1ccc(O)cc1           inactive
32  CCCCCCCC/C=C\CCCCCCCC(=O)OCCOC(=O)CCCCCCC/C=C\CCCCCCCC           inactive
33  CCCCC(CC)COC(=O)c1ccc(O)cc1 (stereo unspecified)             active
34                 CCCCCCOc1cc(C)c(O)c(C)c1C           inactive
35  CC(CN(C)C)CN1c2ccccc2CCc2ccccc21 (stereo unspecified)             active
36  C=C(c1ccc(C(=O)O)cc1)c1cc2c(cc1C)C(C)(C)CCC2(C)C             active
37  CCCCN(CCCC)CCC(O)c1cc2c(Cl)cc(Cl)cc2c2cc(C(F)(F)F)ccc12 (stereo unspecified)             active
38                 CC1(C)C(=O)N(Br)C(=O)N1Br           inactive
39                           NCCCCCCNCCCCCCN           inactive
40  COc1cc(C=C2CCC/C(=C\c3ccc(O)c(OC)c3)C2=O)ccc1O             active
41                               ClC/C=C\CCl           inactive
42  Clc1ccc(C(Cn2ccnc2)OCc2c(Cl)cccc2Cl)c(Cl)c1 (stereo unspecified)             active
43              NCCCC(O)(P(=O)(O)O)P(=O)(O)O           inactive
44      CCCCCCCC/C=C\CCCCCCCC(=O)N(C)CC(=O)O             active
45  CC(NCCC(c1ccccc1)c1ccccc1)c1ccccc1 (stereo unspecified)             active
46    O=C(O)Cc1ccc(OCCNC[C@H](O)c2ccccc2)cc1           inactive
47                        CCN(CC)c1ccc(N)cc1             active
48                                  [O]=[Zr]           inactive
49  CCNc1nc(NC(C)CC)nc(OC)n1 (stereo unspecified)           inactive
50          S=C(SSSSSSC(=S)N1CCCCC1)N1CCCCC1             active

Numbers sourced from PubChem BioAssay (Tox21).
